- assay_comment: ATB200-04 trial: population PK exposure matching of adolescents to adults
- Format: in vivo, human
- condition_info: human, plasma, po, miglustat, predicted; Adolescents N=8; read-out: Cmax, P95
- Experimental: The ATB200-04 trial seeks to evaluate the safety and tolerability of cipaglucosidase alfa/miglustat co-administration. Subjects have scheduled PK assessments at Day 1, Week 26, and Week 52 for plasma total GAA protein and miglustat. […] Methods for Exposure Matching. […] The effect of age at baseline on clearance was also evaluated in the PK models. […]
endpoint_name: Cmax (ng/mL)
Just the number please, in ng/mL, no unit attached.

## Task In one line, give reported Cmax of the entry CCCCN1C[C@H](O)[C@@H](O)[C@H](O)[C@H]1CO .
## Result 2830

The measured values listed here are drawn from patent US20260207718A1.
